Assay: Dissolution comparison of Nα-Nsc-amino acids and Nα-Fmoc-amino acids
Format: physicochemical
Set-up: key: ◯: dissolution; Δ: partial dissolution; X: no dissolution
Conditions: Fmoc-amino acid, 100 mg in 1 ml dichloromethane, heated at 40° C. for 5 minutes, then room temperature 5 minutes
QUANTITY: Dissolved state, Fmoc, column B

# count of solved cases: 6
- MOLECULE: "CC(=O)NCSCC(NC(=O)OCC1c2ccccc2-c2ccccc21)C(=O)O (stereo not drawn) [Fmoc-Cys, reference compound]"
  Dissolved state, Fmoc, column B: "X"
- MOLECULE: "O=C(NC(Cc1cn(C(c2ccccc2)(c2ccccc2)c2ccccc2)cn1)C(=O)O)OCC1c2ccccc2-c2ccccc21 (stereo not drawn) [Fmoc-His, reference compound]"
  Dissolved state, Fmoc, column B: "◯"
- MOLECULE: "CC(OC(C)(C)C)C(NC(=O)OCC1c2ccccc2-c2ccccc21)C(=O)O (stereo not drawn) [Fmoc-Thr, reference compound]"
  Dissolved state, Fmoc, column B: "◯"
- MOLECULE: "CC(C)[C@H](NC(=O)OCC1c2ccccc2-c2ccccc21)C(=O)O [Fmoc-Val, reference compound]"
  Dissolved state, Fmoc, column B: "X"
- MOLECULE: "O=C(O)[C@@H]1CCCN1C(=O)OCC1c2ccccc2-c2ccccc21 [Fmoc-Pro, reference compound]"
  Dissolved state, Fmoc, column B: "◯"
- MOLECULE: "CC(C)(C)OCC(NC(=O)OCC1c2ccccc2-c2ccccc21)C(=O)O (stereo not drawn) [Fmoc-Ser, reference compound]"
  Dissolved state, Fmoc, column B: "◯"

Q: Which Dissolved state, Fmoc, column B value belongs to C[C@H](NC(=O)OCC1c2ccccc2-c2ccccc21)C(=O)O [Fmoc-Ala, reference compound] ?
Ans: X

Q: Input O=C(NC(Cc1c[nH]c2ccccc12)C(=O)O)OCC1c2ccccc2-c2ccccc21 (stereo not drawn) [Fmoc-Trp, reference compound]
Ans: X

Q: Input CSCC[C@H](NC(=O)OCC1c2ccccc2-c2ccccc21)C(=O)O [Fmoc-Met, reference compound]
Ans: ◯

Q: Input CC(C)(C)Oc1ccc(CC(NC(=O)OCC2c3ccccc3-c3ccccc32)C(=O)O)cc1 (stereo not drawn) [Fmoc-Tyr, reference compound]
Ans: ◯

Q: Input O=C(O)CNC(=O)OCC1c2ccccc2-c2ccccc21 [Fmoc-Gly, reference compound]
Ans: X

Q: Input CC[C@H](C)[C@H](NC(=O)OCC1c2ccccc2-c2ccccc21)C(=O)O [Fmoc-Iie, reference compound]
Ans: Δ
